The origin of these recorded values is ChEMBL document CHEMBL1649077.

- Method notes: Metabolic stability of the compound in human hepatocytes assessed as compound remaining after 4 hrs
- Format: ADME, cell-based, Hepatocyte
- Details: read-out: Stability
Reported metric: remaining at 4 h (%)
Give bare numbers, in %.

Input: Dear colleague, I am looking for the recorded remaining at 4 h of the following compound: COP(=O)(c1ccccc1)c1c(C(N)=O)[nH]c2ccc(Cl)cc12 (racemic)
Output: 99

----------
- Method notes: Metabolic stability of the compound in dog hepatocytes assessed as compound remaining after 4 hrs
- Type: ADME, cell-based, Canis lupus familiaris, Hepatocyte
- Details: read-out: Stability
Reported metric: remaining at 4 h (%)
One number for each entry, in %.

Input: Dear colleague, I am looking for the recorded remaining at 4 h of the following compound: COP(=O)(c1ccccc1)c1c(C(N)=O)[nH]c2ccc(Cl)cc12 (racemic)
Output: 100
